# TARGET_ENTITY: T1, Macaque 46 mer peptide (RB exon of macaque CD45RB) (macaque)
# T1 construct: synthetic peptide
# T1 peptide: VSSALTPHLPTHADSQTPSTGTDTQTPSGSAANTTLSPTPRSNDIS
# ASSAY: ELISA, well supernatant on coated peptide
# ELISA reading listing for each entry below

Below are worked cases with known answers.
| BINDER | ELISA reading |
| --- | --- |
| antibody in the supernatant of B cell culture well 227E10 (antibody, V domains shown) VH: QVHLVESGGGLVKPGGSLRLSCAASGFTFINYYMTWIRQAPGKGLEWVSYISLSGSTIYYADSVKGRFTISRDNAKNSLFLQMNSLRAEDTAVYYCARRAATVTTFDYWGQGTLVTVSS VL: EIVMTQSPATLSVSPGERATLSCRASQSVRSNLAWSQQKPGQAPRLLIYGASTRATGIPARFSGSGSGTEFTLTISSLQSEDFAVYYCQQYNNWPLTFGGGTKVEIK | 0.2 |
| antibody in the supernatant of B cell culture well 255D9 (antibody, V domains shown, recombinant 713 came from this well) VH: QVQLVESGGGVVQPGRSLRLSCAASGFTFSNYGMHWVRQAPGKGLEWVAVIWYDGSKKFYADSVKGRFTISRDNFEKTLYLQMNSLRAEDTAVYYCARGGGDFDYWGQGTLVTVSS VL: EIVMTQSPATLSVSPGERATLSCRASQSLSGSYLAWYQQKPGQAPRLLIYSASTRATGIPARFSGSGSGTEFTLTISSLQSEDFAVYYCQQYNNWPPLTFGGGTKVEIK | 0.1 |

Attention now shifts to the item below.
Lookup: Fill in reported ELISA reading for this entry: antibody in the supernatant of B cell culture well 283B2 (antibody, V domains shown, recombinant 648 came from this well) VH: QVQLVESGGGLVKPGGSLRLSCAASGFTFNVYYMNWIRQAPGKGLEWVSYISTSSSAIYYADSVKGRFTISRDNAKNSLYLQMNSLRAEDTAVYYCARRTGSTTVFDYWGQGTLVTVSS VL: EIVLTQSPATLSVSPGERATLSCRASQSINNNLAWYQQKPGQAPRLLIYGASTRATGIPAKFSGSGSGTEFTLTISSLQSENFAVYYCQQYNKWPLTFGGGTKVEIK
Found: 0.2
